system: NCI-H1793; test: relative viability (nuclei count vs DMSO), 5 days (fraction); higher = more cells survive; conditions: first compound 2.53 µM
Rule for this label: met means relative viability is less than 0.5; not met means relative viability is at least 0.5.

- Molecule: "COc1nc(C)cnc1NS(=O)(=O)c1cccnc1-c1ccc(-c2nnco2)cc1 [Zibotentan] + O=C(c1cc(Cc2n[nH]c(=O)c3ccccc23)ccc1F)N1CCN(C(=O)C2CC2)CC1 [Olaparib] (partner 8 µM)"
  Label class: "not met"
- Molecule: "COc1nc(C)cnc1NS(=O)(=O)c1cccnc1-c1ccc(-c2nnco2)cc1 [Zibotentan] + Cc1nc(NC(=O)N2CCC[C@H]2C(N)=O)sc1-c1ccnc(C(C)(C)C(F)(F)F)c1 [Alpelisib] (partner 2 µM)"
  Label class: "not met"
- Molecule: "COc1nc(C)cnc1NS(=O)(=O)c1cccnc1-c1ccc(-c2nnco2)cc1 [Zibotentan] + CCNC(=O)c1noc(-c2cc(C(C)C)c(O)cc2O)c1-c1ccc(CN2CCOCC2)cc1 [Luminespib] (partner 0.01 µM)"
  Label class: "met"
- Molecule: "O=c1cc(-c2cccc3c2Sc2ccccc2S3)oc(N2CCOCC2)c1 + Cc1nc(Nc2ncc(C(=O)Nc3c(C)cccc3Cl)s2)cc(N2CCN(CCO)CC2)n1 [Dasatinib] (partner 0.075 µM)"
  Label class: "met"
- Molecule: "COc1nc(C)cnc1NS(=O)(=O)c1cccnc1-c1ccc(-c2nnco2)cc1 [Zibotentan] + CC(=O)Nc1cccc(-n2c(=O)n(C3CC3)c(=O)c3c(Nc4ccc(I)cc4F)n(C)c(=O)c(C)c32)c1 [Trametinib] (partner 0.02 µM)"
  Label class: "met"
- Molecule: "COc1nc(C)cnc1NS(=O)(=O)c1cccnc1-c1ccc(-c2nnco2)cc1 [Zibotentan] + N=C(N)NC(=N)NCCc1ccccc1 [Phenformin] (partner 250 µM)"
  Label class: "met"

# ---- query molecule ----
Exercise: Does the reported relative viability of O=c1cc(-c2cccc3c2Sc2ccccc2S3)oc(N2CCOCC2)c1 + NC(=O)Nc1cc(-c2cccc(F)c2)sc1C(=O)N[C@H]1CCCNC1 [AZD7762] (partner 0.2 µM) stay below 0.5?
Solution: met

Where do these numbers come from? They come from the supplement of paper PMC10307832.
